- Tested on: intracellular S. flexneri 5a M90T in TC7 cells
- METHOD_NOTES: microbe, parasite or virus in culture
- Assay type: cell-based, Shigella flexneri
- CONDITIONS_USED: TC7 cells infected with GFP-expressing S. flexneri, 14 h treatment, 4 x MIC
ENDPOINT: Fluorescence intensity (RFU), Mean, 4 x MIC
Write the value in RFU as a bare number.

Sample O=C(O)c1cn(C2CC2)c2cc(N3CCNCC3)c(F)cc2c1=O — what was its Fluorescence intensity (RFU), Mean, 4 x MIC?
3078.86

Which Fluorescence intensity (RFU), Mean, 4 x MIC value belongs to NC1CCN(c2c(F)cc3c(=O)c(C(=O)O)cn(C4CC4)c3c2Cl)C1 (stereo not drawn) ?
3034.56

Fill in the blank: the reported Fluorescence intensity (RFU), Mean, 4 x MIC of COc1c(N2CCNC(C)C2)c(F)cc2c(=O)c(C(=O)O)cn(C3CC3)c12 (stereo not drawn) is ____.
3006.58

====

Please provide measured EC50 for the entries that follow.
- Test system: non-growing P. aeruginosa DSM1117
- METHOD_NOTES: Dilution-regrowth assay (OD600, start-growth-time) on stationary-phase P. aeruginosa
- Type: cell-based, Pseudomonas aeruginosa
- CONDITIONS_USED: Pseudomonas aeruginosa, DSM1117; P. aeruginosa; regrowth delay of non-growing bacteria, 1:4 CA-MHB pH 7.4, 24 h treatment, OD600 8 h after dilution; read-out: EC50
Don't forget the unit after the number, please.

# get_value(readout='EC50', item= CO[C@H]1/C=C/O[C@@]2(C)Oc3c(C)c(O)c4c(c3C2=O)C2=NC3(CCN(CC(C)C)CC3)NC2=C(NC(=O)/C(C)=C\C=C\[C@H](C)[C@H](O)[C@@H](C)[C@@H](O)[C@@H](C)[C@H](OC(C)=O)[C@@H]1C)C4=O )
942 nM

Fill in the blank: the reported EC50 of N[C@@H]1[C@H]2CN(c3nc4c(cc3F)c(=O)c(C(=O)O)cn4-c3ccc(F)cc3F)C[C@@H]12 is ____.
1020 nM

Report EC50 for O=C(O)c1cn(C2CC2)c2cc(N3CCNCC3)c(F)cc2c1=O please.
125 nM

If you can, please state the reported EC50 value of CO/N=C1\CN(c2nc3c(cc2F)c(=O)c(C(=O)O)cn3C2CC2)CC1CN (stereo not shown) .
165 nM

What does the record list as EC50 for NC1CCN(c2c(F)cc3c(=O)c(C(=O)O)cn(C4CC4)c3c2Cl)C1 (stereo not shown) ?
41 nM

Entry COc1c(N2C[C@@H]3CCCN[C@@H]3C2)c(F)cc2c(=O)c(C(=O)O)cn(C3CC3)c12 has what EC50?
264 nM

Bench note: what EC50 did CCN1CCN(c2cc3c(cc2F)c(=O)c(C(=O)O)cn3C2CC2)CC1 show?
690 nM
